- STUDY_SYSTEM: α7 nAChR (Rattus norvegicus, UniProt Q05941)
- Construct: Rat brain; from tissue
- Sequence (Q05941 23-502): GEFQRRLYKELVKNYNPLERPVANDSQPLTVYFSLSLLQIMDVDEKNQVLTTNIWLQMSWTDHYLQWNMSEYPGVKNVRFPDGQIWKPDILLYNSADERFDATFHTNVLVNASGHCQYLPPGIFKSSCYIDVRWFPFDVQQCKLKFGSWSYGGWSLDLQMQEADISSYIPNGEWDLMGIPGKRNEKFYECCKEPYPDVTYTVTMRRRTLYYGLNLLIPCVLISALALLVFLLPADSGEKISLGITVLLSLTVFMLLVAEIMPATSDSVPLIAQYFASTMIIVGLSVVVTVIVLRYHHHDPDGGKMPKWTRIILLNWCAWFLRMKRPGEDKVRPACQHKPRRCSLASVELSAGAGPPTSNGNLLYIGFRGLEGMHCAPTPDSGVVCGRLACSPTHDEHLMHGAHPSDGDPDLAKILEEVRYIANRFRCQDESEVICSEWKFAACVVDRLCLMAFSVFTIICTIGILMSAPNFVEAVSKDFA
- TEST_SUMMARY: biochemical
- SETUP_CONDITIONS: read-out: Ki α7 [3H]-MLA Binding
ASSAY_ENDPOINT: Ki (µM)
Value expressed in µM; do not type the unit.

- CO[C@H]1CC=C2CCN3CCC4=C(CC(=O)OC4)[C@]23C1 [DHβE, dihydro-β-erythoidine]: 5

Now turn to the next compound.
Measured Ki, O=c1cccc2n1C[C@@H]1CNC[C@H]2C1 [(-)-CYT, cytisine] : 1.16

* * *

- STUDY_SYSTEM: α6β3β4α5 nAChR (Homo sapiens, UniProt P30926+Q15825)
- Construct: expressed in transfected cells; host or cells: SH-EP1 human epithelial cells
- Sequence (Q15825 26-494): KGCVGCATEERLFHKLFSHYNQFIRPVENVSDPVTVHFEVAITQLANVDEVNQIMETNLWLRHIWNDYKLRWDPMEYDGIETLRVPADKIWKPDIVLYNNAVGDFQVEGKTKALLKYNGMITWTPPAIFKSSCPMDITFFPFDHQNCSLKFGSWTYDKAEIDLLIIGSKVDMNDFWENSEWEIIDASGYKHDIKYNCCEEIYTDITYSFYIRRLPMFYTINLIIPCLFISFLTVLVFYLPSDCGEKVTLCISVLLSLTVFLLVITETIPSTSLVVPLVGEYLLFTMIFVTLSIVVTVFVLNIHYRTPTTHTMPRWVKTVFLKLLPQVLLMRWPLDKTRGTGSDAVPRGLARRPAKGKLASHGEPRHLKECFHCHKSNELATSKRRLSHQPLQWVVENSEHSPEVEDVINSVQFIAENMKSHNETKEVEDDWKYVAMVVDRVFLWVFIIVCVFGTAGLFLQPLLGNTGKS
- Sequence (Q05901 25-458 partner limits assumed): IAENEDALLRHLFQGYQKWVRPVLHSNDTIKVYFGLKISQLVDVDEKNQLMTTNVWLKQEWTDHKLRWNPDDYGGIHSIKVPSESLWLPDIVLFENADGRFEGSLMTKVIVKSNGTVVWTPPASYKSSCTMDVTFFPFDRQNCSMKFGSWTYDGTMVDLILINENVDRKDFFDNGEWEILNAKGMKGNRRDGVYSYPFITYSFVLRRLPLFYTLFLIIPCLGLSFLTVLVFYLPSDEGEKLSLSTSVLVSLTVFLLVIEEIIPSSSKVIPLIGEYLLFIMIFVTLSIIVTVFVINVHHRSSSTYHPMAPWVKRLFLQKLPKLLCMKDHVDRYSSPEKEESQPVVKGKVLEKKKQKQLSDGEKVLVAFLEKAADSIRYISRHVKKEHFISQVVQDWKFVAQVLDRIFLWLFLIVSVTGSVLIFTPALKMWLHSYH
- Sequence (P30926 22-498): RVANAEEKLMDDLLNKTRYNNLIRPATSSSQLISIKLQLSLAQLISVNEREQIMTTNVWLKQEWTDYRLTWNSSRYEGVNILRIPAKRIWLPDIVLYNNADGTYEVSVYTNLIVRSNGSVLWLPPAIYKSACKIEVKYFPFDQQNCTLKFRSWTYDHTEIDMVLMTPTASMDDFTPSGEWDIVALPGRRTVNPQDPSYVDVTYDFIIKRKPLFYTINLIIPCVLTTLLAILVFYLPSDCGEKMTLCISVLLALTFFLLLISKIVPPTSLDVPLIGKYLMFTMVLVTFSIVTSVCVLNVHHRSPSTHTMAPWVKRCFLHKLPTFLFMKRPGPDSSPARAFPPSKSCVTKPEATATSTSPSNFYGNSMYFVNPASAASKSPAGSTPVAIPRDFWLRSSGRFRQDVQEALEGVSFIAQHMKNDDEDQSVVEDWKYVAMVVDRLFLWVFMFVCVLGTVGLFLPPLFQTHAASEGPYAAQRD
- Sequence (P30532 23-468 partner): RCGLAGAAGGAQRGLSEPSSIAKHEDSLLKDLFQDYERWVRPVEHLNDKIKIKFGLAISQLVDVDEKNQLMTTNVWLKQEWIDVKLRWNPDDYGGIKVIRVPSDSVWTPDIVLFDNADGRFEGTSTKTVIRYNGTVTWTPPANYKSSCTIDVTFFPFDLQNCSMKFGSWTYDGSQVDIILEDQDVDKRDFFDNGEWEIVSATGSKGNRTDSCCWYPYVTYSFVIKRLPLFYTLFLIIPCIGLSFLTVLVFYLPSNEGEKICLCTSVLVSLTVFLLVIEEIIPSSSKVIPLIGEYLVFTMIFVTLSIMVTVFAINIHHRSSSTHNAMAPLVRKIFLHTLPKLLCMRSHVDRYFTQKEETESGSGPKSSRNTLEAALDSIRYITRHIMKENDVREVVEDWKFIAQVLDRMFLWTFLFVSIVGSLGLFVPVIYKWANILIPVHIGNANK
- TEST_SUMMARY: [3H]-epibatidine binding to SH-EP1 α6β3β4α5 cell membranes (saturation and competition)
- SETUP_CONDITIONS: SH-EP1 α6β3β4α5 membranes; read-out: Ki in competition with [3H]-EPI (rank order of potency)
ASSAY_ENDPOINT: pKi
Expect pKi as a plain number equal to -log10 of the molar concentration.

pKi in this record for c1cncc(C2CC3CCN2CC3)c1 (racemic) : 8.70

* * *

- STUDY_SYSTEM: α4β2 nAChR (Rattus norvegicus, UniProt P09483+P12390)
- Construct: Rat Brain; from tissue
- Sequence (P12390 25-500): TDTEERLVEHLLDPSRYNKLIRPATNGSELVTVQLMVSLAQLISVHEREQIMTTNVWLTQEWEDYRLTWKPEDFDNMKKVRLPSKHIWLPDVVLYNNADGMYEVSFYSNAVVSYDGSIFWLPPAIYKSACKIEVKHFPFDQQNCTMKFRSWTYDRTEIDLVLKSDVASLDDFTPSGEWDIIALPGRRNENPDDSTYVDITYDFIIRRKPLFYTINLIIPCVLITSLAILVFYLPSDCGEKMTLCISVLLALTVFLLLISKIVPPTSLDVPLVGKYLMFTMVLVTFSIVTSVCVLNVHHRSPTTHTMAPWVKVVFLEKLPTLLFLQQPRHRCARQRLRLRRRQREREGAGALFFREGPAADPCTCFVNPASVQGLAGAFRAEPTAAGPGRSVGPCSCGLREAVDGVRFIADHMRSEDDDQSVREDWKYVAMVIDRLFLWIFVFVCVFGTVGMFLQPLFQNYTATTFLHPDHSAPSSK
- Sequence (P09483 31-630): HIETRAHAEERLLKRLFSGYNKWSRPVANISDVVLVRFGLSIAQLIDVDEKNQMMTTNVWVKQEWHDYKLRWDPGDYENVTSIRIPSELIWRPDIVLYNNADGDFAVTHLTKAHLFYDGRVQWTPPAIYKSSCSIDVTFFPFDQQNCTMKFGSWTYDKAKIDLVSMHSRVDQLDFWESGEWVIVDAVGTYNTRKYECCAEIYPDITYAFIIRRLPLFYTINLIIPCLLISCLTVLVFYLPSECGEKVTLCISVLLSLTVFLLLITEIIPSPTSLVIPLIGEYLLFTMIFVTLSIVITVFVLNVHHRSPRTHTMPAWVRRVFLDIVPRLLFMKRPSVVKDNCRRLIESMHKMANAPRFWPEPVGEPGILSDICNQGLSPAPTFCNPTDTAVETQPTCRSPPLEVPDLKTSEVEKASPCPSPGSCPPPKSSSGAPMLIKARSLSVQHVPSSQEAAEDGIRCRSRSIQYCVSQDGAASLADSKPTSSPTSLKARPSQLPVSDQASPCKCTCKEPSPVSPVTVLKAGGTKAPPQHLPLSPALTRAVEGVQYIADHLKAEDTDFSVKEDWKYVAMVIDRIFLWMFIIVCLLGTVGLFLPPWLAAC
- TEST_SUMMARY: biochemical
- Format: binding
- SETUP_CONDITIONS: read-out: Ki α4β2 [3H]-NIC Binding
ASSAY_ENDPOINT: pKi
# pKi is unitless: minus log10 of the molar concentration; print number only

• O=c1cccc2n1C[C@@H]1CNC[C@H]2C1 [(-)-CYT, cytisine] = 9.00

Consider now this further compound.
Reported pKi for CO[C@H]1CC=C2CCN3CCC4=C(CC(=O)OC4)[C@]23C1 [DHβE, dihydro-β-erythoidine] was 7.58

* * *

- STUDY_SYSTEM: α6β3β4α5 nAChR (Homo sapiens, UniProt P30926+Q15825)
- Construct: expressed in transfected cells; host or cells: SH-EP1 human epithelial cells
- TEST_SUMMARY: [3H]-epibatidine binding to SH-EP1 α6β3β4α5 cell membranes (saturation and competition)
- SETUP_CONDITIONS: read-out: Ki α6β3β4α5 [3H]-EPI Binding
ASSAY_ENDPOINT: Ki

• CO[C@H]1CC=C2CCN3CCC4=C(CC(=O)OC4)[C@]23C1 [DHβE, dihydro-β-erythoidine] = > 10000 nM

Would you kindly look at the next entry?
So, O=c1cccc2n1C[C@@H]1CNC[C@H]2C1 [(-)-CYT, cytisine] ? Its Ki was 150 nM
